The reported numbers originate from patent US6737383B1.

Listing of recorded Redroot pigweed plant response rating by entry.
- System: pigweed
- assay-explanation: Test B pre/postemergence pigweed
- Assay type: in vivo, Amaranthus retroflexus
- run-conditions: Preemergence, Rate 500 g/ha; scale 0 (no effect) to 10 (complete control)
Please reply with the number alone, leaving off any unit.

Worked cases, Redroot pigweed plant response rating given:
Cc1ccccc1-n1c(=O)on(C(=O)N(Cc2ccccc2)C(C)C)c1=O [Compound 72] :: 0
Cc1ccccc1-n1c(=O)on(C(=O)N(c2cc(OC(C)C)c(Cl)cc2Cl)C(C)C)c1=O [Compound 42] :: 0
Cc1cccc(C(C)C)c1-n1c(=O)on(C(=O)N(c2ccccc2)C(C)C)c1=O [Compound 66] :: 0

Now for a further compound.
Reported Redroot pigweed plant response rating for CC(C)N(C(=O)n1oc(=O)n(-c2cc(Cl)ccc2Cl)c1=O)c1ccc(F)cc1 [Compound 16] : what is it?
0
